- Test system: T-47D breast
- assay.protocol: NCI-60 one-dose screen, 48 h (100 = growth as untreated, 0 = no growth, -100 = all killed)
- measurement.conditions: 10 µM unless noted
- Method: Growth inhibition of the T-47D human tumor cell line is measured as a screen for anti-cancer activity. Cells are grown in 96 well plates and exposed to the test compound for 48 hours. Compounds are tested at a single concentration, which is 10^-5 M for most compounds. The reported endpoint is percent growth (GI% or GIPRCNT), where numbers from 0 - 100% represent growth inhibition, and numbers from -100% - 0 represent cell death. For example, a value of 40 represents 60% growth inhibition. […]
About 83,000 compounds went through this panel and 20% of them were active in at least one assay; those are over-represented in the sample as a whole.
Form field: growth (one value per entry).
Give a bare numeral; the unit % is implied.

Use these answered entries as a reference point.
{"compound.smiles": "CC(=O)[C@H]1CCC/C=C/[C@@H]2C[C@H](O)C[C@H]2[C@H](O)/C=C/C(=O)O1", "value": -12.2}
{"compound.smiles": "C/C(=N\\NC(=O)CSc1nc2ccccc2c(=O)n1CCc1ccc(S(N)(=O)=O)cc1)c1ccccn1", "value": 28.4}

Q: Look at this molecule and give its reported growth. Cc1ncc(C(=O)Nc2ccc(CN3CCN(C)CC3)c(C(F)(F)F)c2)cc1C#Cc1cnc(N)cc1C#N
Result: 57.8
